# tgt: BATF3;JUNB (human;human, UniProt Q9NR55;P17275 1-127;148-347, |)
# Sequence 1: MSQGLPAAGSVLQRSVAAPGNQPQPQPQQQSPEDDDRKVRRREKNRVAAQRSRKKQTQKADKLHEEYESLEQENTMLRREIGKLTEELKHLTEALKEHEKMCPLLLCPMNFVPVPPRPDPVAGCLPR
# Sequence 2: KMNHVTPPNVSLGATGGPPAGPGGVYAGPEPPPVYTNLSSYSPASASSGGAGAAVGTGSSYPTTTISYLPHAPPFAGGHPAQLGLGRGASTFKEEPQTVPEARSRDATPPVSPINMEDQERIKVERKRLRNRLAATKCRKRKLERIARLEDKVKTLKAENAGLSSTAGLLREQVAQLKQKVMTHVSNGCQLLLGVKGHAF
# experimentDescription: Spec-seq (EMSA and sequencing of bound and unbound bands); 100 nM BATFx-JUNB, 1 uM dsDNA library, 50 mM K acetate, 20 mM Tris-acetate, 10 mM Mg acetate, 100 ug/ml BSA, pH 7.9, 10% glycerol, 30 min on ice; native 9% PAGE at 4 C; low values mean tight binding
# cond: protein: recombinant;recombinant; tags: N-terminal mCherry-TEV, cleaved off;C-terminal 6His; copies: 1;1; dsDNA, one strand shown
Class key for binding signal values: lower bin: < -0.5 kT; middle bin: ≥ -0.5 kT and < 0.3 kT; upper bin: ≥ 0.3 kT

- GATAGTCTCATTTTCACCCCGTGAAATGAAGTCATTGTTCCATTACAGTATCTGT: lower bin
- GATAGTCTCATTTTCACCCCGTGAAATGGCTCATTTGTTCCATTACAGTATCTGT: upper bin
- GATAGTCTCATTTTCACCCCGTGAAATGAGTAAGTTGTTCCATTACAGTATCTGT: middle bin
- GATAGTCTCATTTTCACCCCGTGAAAGTAAGTCATTGTTCCATTACAGTATCTGT: middle bin
- GATAGTCTCATTTTCACCCCGTGAAATGACTCTGTTGTTCCATTACAGTATCTGT: upper bin
- GATAGTCTCATTTTCACCCCGTGAAATGACTCGGTTGTTCCATTACAGTATCTGT: upper bin
- GATAGTCTCATTTTCACCCCGTGAAATGAGTCACTTGTTCCATTACAGTATCTGT: lower bin
- GATAGTCTCATTTTCACCCCGTGAAATGAGTTACTTGTTCCATTACAGTATCTGT: upper bin
- GATAGTCTCATTTTCACCCCGTGAAATGAGGTCATTGTTCCATTACAGTATCTGT: lower bin
- GATAGTCTCATTTTCACCCCGTGAAACTTAGTCATTGTTCCATTACAGTATCTGT: lower bin
- GATAGTCTCATTTTCACCCCGTGAAATGACGACATTGTTCCATTACAGTATCTGT: lower bin
- GATAGTCTCATTTTCACCCCGTGAAATGACGGCATTGTTCCATTACAGTATCTGT: middle bin
- GATAGTCTCATTTTCACCCCGTGAAATCACGTCATTGTTCCATTACAGTATCTGT: lower bin
- GATAGTCTCATTTTCACCCCGTGAAATTACGTCATTGTTCCATTACAGTATCTGT: lower bin
- GATAGTCTCATTTTCACCCCGTGAAATGACTTACTTGTTCCATTACAGTATCTGT: upper bin
- GATAGTCTCATTTTCACCCCGTGAAATGACACATTTGTTCCATTACAGTATCTGT: middle bin
- GATAGTCTCATTTTCACCCCGTGAAATGACTTAGTTGTTCCATTACAGTATCTGT: middle bin
- GATAGTCTCATTTTCACCCCGTGAAAATTAGTCATTGTTCCATTACAGTATCTGT: lower bin
- GATAGTCTCATTTTCACCCCGTGAAATGAGTTAATTGTTCCATTACAGTATCTGT: middle bin
- GATAGTCTCATTTTCACCCCGTGAAACTGCGTCATTGTTCCATTACAGTATCTGT: lower bin
- GATAGTCTCATTTTCACCCCGTGAAATGACTTATTTGTTCCATTACAGTATCTGT: middle bin
- GATAGTCTCATTTTCACCCCGTGAAATGAGTCAGTTGTTCCATTACAGTATCTGT: lower bin
- GATAGTCTCATTTTCACCCCGTGAAATGAGTCCGTTGTTCCATTACAGTATCTGT: upper bin
- GATAGTCTCATTTTCACCCCGTGAAATGAGACACTTGTTCCATTACAGTATCTGT: upper bin
- GATAGTCTCATTTTCACCCCGTGAAATGAGACATTTGTTCCATTACAGTATCTGT: upper bin
- GATAGTCTCATTTTCACCCCGTGAAATGACTCTTTTGTTCCATTACAGTATCTGT: upper bin
- GATAGTCTCATTTTCACCCCGTGAAATGACCCATTTGTTCCATTACAGTATCTGT: upper bin
- GATAGTCTCATTTTCACCCCGTGAAAGTGTGTCATTGTTCCATTACAGTATCTGT: middle bin
- GATAGTCTCATTTTCACCCCGTGAAATGTGTCATTTGTTCCATTACAGTATCTGT: middle bin
- GATAGTCTCATTTTCACCCCGTGAAAGCGAGTCATTGTTCCATTACAGTATCTGT: middle bin
